Origin of measurements: patent US7868204B2

pIC50 overview
study-target: cloned recombinant human HDAC-1 (Homo sapiens, UniProt Q13547)
Construct: made in house; host or cells: Baculovirus insect cell expression system
Sequence (Q13547 whole entry): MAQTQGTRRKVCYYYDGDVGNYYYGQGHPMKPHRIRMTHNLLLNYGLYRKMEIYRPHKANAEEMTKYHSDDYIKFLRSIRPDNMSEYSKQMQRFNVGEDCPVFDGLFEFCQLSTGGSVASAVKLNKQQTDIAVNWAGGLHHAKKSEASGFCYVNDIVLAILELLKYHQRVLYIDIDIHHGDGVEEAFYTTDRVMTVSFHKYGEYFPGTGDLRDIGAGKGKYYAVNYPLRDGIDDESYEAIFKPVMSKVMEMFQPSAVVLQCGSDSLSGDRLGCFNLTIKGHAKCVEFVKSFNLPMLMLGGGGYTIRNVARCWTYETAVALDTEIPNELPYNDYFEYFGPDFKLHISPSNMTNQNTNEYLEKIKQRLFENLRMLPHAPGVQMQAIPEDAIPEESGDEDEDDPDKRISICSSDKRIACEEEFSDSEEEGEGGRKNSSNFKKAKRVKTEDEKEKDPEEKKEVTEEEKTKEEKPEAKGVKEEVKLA
protocol-details: Human HDAC-1 enzyme inhibition, Assay 1 ([3H]-acetylated histone substrate, scintillation counting)
Format: biochemical
study-conditions: Table 5F; read-out: Human HDAC-1 IC50
# pIC50 = -log10(concentration in molar units)

Nc1ccccc1NC(=O)c1ccc(CC2COc3ccccc3C2)cc1 (stereo not shown) = 5.70
Nc1ccccc1NC(=O)c1ccc(CNc2nc(Cl)nc3[nH]cnc23)cc1 = 6.40
Nc1ccccc1NC(=O)c1ccc(CNc2ncccn2)cc1 = 5.40

Attention now shifts to the item below.
## Input # query: pIC50 of entry "Cc1cc(C)n(-c2ccc(C(=O)Nc3ccccc3N)cc2)n1"
## Output 5.30
